target: ABL1 (T315I) (Homo sapiens, UniProt P00519, T315I); experiment: Luminescence-based ABL kinase assay (300 μM ATP), ADP-Glo; assay type: biochemical
Label scheme, based on IC50: low group = under 80 nM, middle group = from 80 nM up to 200 nM, high group = 200 nM and over

>>> assigned_class("Cc1c(-c2cc3cc(NC(=O)C4CC4)ncc3n2C)ccc2[nH]ncc12")
"high group"
>>> assigned_class("COc1ncnc(OC)c1-c1cc2cc(NC(=O)[C@@H]3C[C@@H]3F)ncc2n1C")
"low group"
>>> assigned_class("COc1ncnc(C)c1-c1cc2cc(NC(=O)[C@@H]3C[C@@H]3F)ncc2n1C")
"high group"
>>> assigned_class("COc1ncc(F)cc1-c1c(C)c2cc(NC(=O)[C@@H]3C[C@@H]3F)ncc2n1C")
"middle group"
>>> assigned_class("COc1ncnc(OC)c1-c1cc2cc(NC(=O)[C@@H]3C[C@H]3CN3CCN(C)CC3)ncc2n1C (single isomer, unassigned)")
"middle group"
>>> assigned_class("COc1cnnc(OC)c1-c1cc2cc(NC(=O)[C@@H]3C[C@@H]3F)ncc2n1C")
"middle group"
>>> assigned_class("COc1ccccc1-c1[nH]c2cc(NC(=O)[C@@H]3C[C@@H]3F)ncc2c1C")
"low group"
>>> assigned_class("Cc1cc2[nH]ccc2cc1-c1cc2cc(NC(=O)C3CC3)ncc2n1C")
"middle group"
>>> assigned_class("Cn1c(-c2ccccc2OCCO)cc2cc(NC(=O)C3CC3)ncc21")
"high group"
>>> assigned_class("COc1c(-c2cc3cc(NC(=O)[C@@H]4C[C@@H]4F)ncc3n2C)ccc2[nH]cnc12")
"low group"
>>> assigned_class("COc1nc(OC)c(-c2cc3cc(NC(=O)[C@@H]4C[C@@H]4F)ncc3n2C)c(OC)n1")
"high group"
>>> assigned_class("CCN1CCN(CCNC(=O)Nc2cc3cc(-c4c(OC)cccc4OC)n(C)c3cn2)CC1")
"low group"
>>> assigned_class("COc1ccccc1-c1cc2cc(NC(=O)[C@H]3C[C@@H]3CN(C)C)ncc2n1C (single isomer, unassigned)")
"middle group"
>>> assigned_class("CCOc1ncc(F)cc1-c1cc2cc(NC(=O)[C@@H]3C[C@@H]3F)ncc2n1C")
"high group"
>>> assigned_class("COc1ccccc1-c1cc2cc(NC(=O)NCCN3CCN(C)CC3)ncc2n1C")
"low group"
